# Test system: RXF 393 renal
# ASSAY EXPLANATION: NCI tumour cell line growth inhibition, 48 h; in the data active = GI50 below about 0.43 µM; inactive = the rest
Outcomes: active, inactive

| MOLECULE | LABEL VALUE |
| --- | --- |
| c1ccc2[nH]c(-c3ccc(Nc4nc(N5CCCC5)nc5[nH]ncc45)cc3)nc2c1 | inactive |
| C=CC(=O)N1CCN([C@@H](CC2CC2)c2ccc([C@H](C)Nc3ncc4c(n3)N(CC)C(=O)OC4)cc2)CC1 | inactive |
| COc1cccc2c1C(=O)c1c(O)c3c(c(O)c1C2=O)C[C@@](O)(/C(C)=N/NC(=O)c1cccc([N+](=O)[O-])c1)C[C@@H]3OC1CC(N)C(O)C(C)O1 (stereo partly drawn) | inactive |
| C=CCn1c(SCC(=O)Nc2ccc(C(=O)/C=C/c3cc(OC)c(OC)c(OC)c3)cc2)nnc1-c1cc(OC)c(OC)c(OC)c1 | inactive |
| CCCCCCCCCCCC(c1ccccc1)[N+](C)(C)C (stereo not drawn) | inactive |
| CCN(Cc1ccccc1)c1ccc(/C=C2\COc3ccccc3C2=O)cc1 | inactive |
| CC(=O)Nc1ccc(CC[C@H]2CCC/C=C/[C@@H]3C[C@H](O)C[C@H]3[C@H](O)/C=C/C(=O)O2)cc1 | active |
| N#Cc1nc2cc(Cl)c(Cl)cc2nc1-c1ccc(Cl)cc1 | inactive |

====

Catalogue of molecules with associated TGI
# Test system: UO-31 renal
# ASSAY EXPLANATION: NCI tumour cell line growth inhibition, 48 h

| MOLECULE | TGT | TGI |
| --- | --- | --- |
| O=C1C(NS(=O)(=O)c2ccccc2)=C(n2ccnc2)C(=O)c2ccccc21 | UO-31 renal | > 100 µM |
| O=C(O)c1ccccc1NS(=O)(=O)c1ccc(Cl)cc1 | UO-31 renal | > 100 µM |
| CCCCCCCCCCCC(c1ccccc1)[N+](C)(C)C (centres undefined) | UO-31 renal | 26.9 µM |
| C=C1C(=O)O[C@@H]2C[C@@]3(C)CCC[C@H](C)C3=C[C@H]12 (tested in a mixture with another compound) | UO-31 renal | 3.57 µM |
| C=CCn1c(SCC(=O)Nc2ccc(C(=O)/C=C/c3cc(OC)c(OC)c(OC)c3)cc2)nnc1-c1cc(OC)c(OC)c(OC)c1 | UO-31 renal | 17.5 µM |
| NC(=O)N/N=C(\Cc1cc(=O)oc2cc(O)ccc12)C(=O)Nc1ccccc1C(N)=O | UO-31 renal | > 100 µM |
| O=C1c2ccccc2C(=O)N1C/C=N/NS(=O)(=O)c1cccc([N+](=O)[O-])c1 | UO-31 renal | > 100 µM |
| NCC(=O)N[C@H]1c2ccsc2/C(=N/O)[C@H]1O | UO-31 renal | > 100 µM |
| COc1nc2ncc([C@@H](OC(C)=O)[C@@H](COC(C)=O)OC(C)=O)nc2c(=O)n1C | UO-31 renal | > 100 µM |

====

Each record here notes measured TGI.
# Test system: COLO 205 colon
# ASSAY EXPLANATION: NCI tumour cell line growth inhibition, 48 h

| COMPOUND | TGI |
| --- | --- |
| C/C(=C1\C(=O)Nc2ccccc21)c1cccc(/C(C)=C2/C(=O)Nc3ccccc32)n1 | > 100 µM |
| CN(C)CCNc1c(O)c2c(c(O)c1Cl)C(=O)C=CC2=O | 3.47 µM |
| Clc1cccc(-c2cc(-c3ccc4c(c3)OCCO4)[nH]n2)c1 | 30.1 µM |
| CCN(Cc1ccccc1)c1ccc(/C=C2\COc3ccccc3C2=O)cc1 | > 1000 µM |
| O=C1CN=C(c2ccccc2)c2ccncc2N1 | > 100 µM |
| CSC(=Nc1ccccc1)c1c(C)[nH]n(-c2ccccc2)c1=O | > 100 µM |
| COc1ccc2c(c1)c(-c1ccc(-c3cn(C)c4ccc(OC)cc34)s1)cn2C | > 100 µM |
| N#Cc1cnc2ccc(NCc3cnc[nH]3)cc2c1Nc1ccc(F)c(Cl)c1 | > 100 µM |
| CCOc1ccc2c(c1)[n+]([O-])c(C(N)=O)c(N)[n+]2[O-] | > 100 µM |
| O=C(O)CSC1=NCCN1 | > 100 µM |
| CCOP(=O)(OCC)/C(C#N)=C/c1nc[nH]c1C | > 100 µM |
| COc1ccc(-c2nn3ncccc3c2-c2ccnc(Nc3ccc(F)c(F)c3)n2)cc1 | > 25 µM |
| CN(C)CC1CCC/C(=C\c2ccc(Cl)c(Cl)c2)C1=O (centres undefined) | 7.27 µM |
| CCCCCCCCCCCC(c1ccccc1)[N+](C)(C)C (centres undefined) | 2.2 µM |
| CN(N=O)C(=O)NC(CCCCNC(=O)OCc1ccccc1)C(=O)OCc1ccccc1 (centres undefined) | 47.2 µM |
| COc1ccccc1C1C(C#N)=C(N)SC(N)=C1C#N | > 100 µM |
| OC1CCN2Cc3ccccc3N=C12 (centres undefined) | > 100 µM |
| Cc1c2ccccc2c(=O)n2c(-c3ccccn3)cccc12 | > 100 µM |
| O=C(Nc1ccccc1/C=C/c1n[nH]c2ccccc12)c1ccccc1 | 3.6 µM |
| Cc1cc2c(cc1Cl)SSc1cc(Cl)c(C)cc1S(=O)(=O)Nc1nc(N)nn1C(O)n1nc(N)nc1NS2(=O)=O | > 10 µM |
| O=C(O)C1CCCN1 (centres undefined) | > 100 µM |
| C/C(=N/NC(=S)N1CCCCCC1)c1cccc(/C(C)=N\NC(=S)N2CCCCCC2)n1 | 3.23 µM |
| CC1COS(=O)N1c1ccccc1 (centres undefined) | > 100 µM |
| CCOc1cc2c(cc1OC)c[n+](C)c1c3cc(OC)c(OC)cc3ccc21 | > 100 µM |
